Recorded peptide exchange yield for the following binders
TARGET_OR_SYSTEM: T1, HLA-B*44:05 (human)
T1 construct: also called peptide-receptive MHC class I molecule
TEST_PROTOCOL: UV peptide exchange, anti-b2m ELISA

Check out these entries, answers already filled in.
>>> df
      binder  measured_value
0  MEILWKTLT           > 75%
1  SEPQITVNF       50 to 75%
2  MELLFLDTF       20 to 50%
3  EEIFKTLNY       50 to 75%
4  SEQHSLPVF       50 to 75%

Kindly note the recorded peptide exchange yield for VESSQAFTW , which is 50 to 75%

Kindly note the recorded peptide exchange yield for WEVVHTVF , which is 20 to 50%

Kindly note the recorded peptide exchange yield for LEWQNSSSM , which is 50 to 75%
